Target: FAP-expressing human WI-38 fibroblasts (Homo sapiens (Human), UniProt Q12884)
Sequence (Q12884 whole entry): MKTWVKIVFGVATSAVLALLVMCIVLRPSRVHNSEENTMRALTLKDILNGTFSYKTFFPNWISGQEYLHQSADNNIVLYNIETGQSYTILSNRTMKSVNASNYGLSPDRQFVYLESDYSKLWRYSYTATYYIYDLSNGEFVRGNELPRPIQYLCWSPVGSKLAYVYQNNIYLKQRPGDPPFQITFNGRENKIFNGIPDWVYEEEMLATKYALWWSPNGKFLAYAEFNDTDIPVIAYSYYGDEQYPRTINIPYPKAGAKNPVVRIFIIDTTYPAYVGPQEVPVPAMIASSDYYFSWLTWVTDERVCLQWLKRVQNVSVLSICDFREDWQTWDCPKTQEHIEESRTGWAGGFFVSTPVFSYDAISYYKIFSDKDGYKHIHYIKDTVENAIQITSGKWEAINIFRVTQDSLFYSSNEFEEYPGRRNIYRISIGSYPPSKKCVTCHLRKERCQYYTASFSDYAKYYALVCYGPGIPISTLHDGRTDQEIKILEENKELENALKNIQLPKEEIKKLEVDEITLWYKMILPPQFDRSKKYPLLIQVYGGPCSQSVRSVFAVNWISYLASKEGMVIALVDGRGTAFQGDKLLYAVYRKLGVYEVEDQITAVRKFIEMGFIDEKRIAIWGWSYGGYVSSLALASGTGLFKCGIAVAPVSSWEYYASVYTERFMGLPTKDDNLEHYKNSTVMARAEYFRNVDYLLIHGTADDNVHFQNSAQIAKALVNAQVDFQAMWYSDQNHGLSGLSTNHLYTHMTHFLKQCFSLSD
Test: FACS binding assay (competitive, Cy5-labeled 3BP-2935)
Conditions: WI-38 fibroblasts
Procedure: In order to determine binding of compounds according to the present invention to FAP-expressing cells, a competitive FACS binding assay was established. […] Cells were analyzed in an Attune NxT flow cytometer (Thermo Fisher Scientific). Median fluorescence intensities (Cy5 channel) were calculated by Attune NxT software and plotted against test compound concentrations. […]
// label = criterion met if pIC50 (FACS) is not less than 8, otherwise criterion not met

molecule="CCOc1cccc2c(C(=O)NCC(=O)N3CC(F)(F)C[C@H]3C#N)ccnc12 [Compound 3BP-4151]" classification="criterion not met"
molecule="CS(=O)(=O)c1ccc(-c2ccc3nccc(C(=O)NCC(=O)N4C[C@H](F)C[C@H]4C#N)c3c2)cc1 [Compound 3BP-3773]" classification="criterion not met"
molecule="Cc1cc2nccc(C(=O)NCC(=O)N3CC(F)(F)C[C@H]3C#N)c2cc1-c1ccc(S(C)(=O)=O)cc1 [Compound 3BP-4026]" classification="criterion met"
molecule="COc1cccc2c(C(=O)NCC(=O)N3CC(F)(F)C[C@H]3C#N)ccnc12 [Compound 3BP-4085]" classification="criterion not met"
molecule="Cc1cccc2c(C(=O)NCC(=O)N3CC(F)(F)C[C@H]3C#N)ccnc12 [Compound 3BP-4150]" classification="criterion not met"
molecule="CS(=O)(=O)c1cc(F)c(-c2ccc3nccc(C(=O)NCC(=O)N4CCC[C@H]4C#N)c3c2)c(F)c1 [Compound 3BP-3828]" classification="criterion met"
